Where do these numbers come from? They come from PubChem BioAssay AID2060501.

Tested on: 282377-053-R-J1-PDC complex spheroids, viability;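 further: spheroids exposed to compounds for 7 days before readout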
Assay: Anticancer human tumor 282377-053-R-J1-PDC patient-derived colon adenocarcinoma cell line growth inhibition [GQUAD]
Conditions: second compound 0.1 µM; first compound 0.1 µM; stronger effect = lower value
Text: DNA G-quadruplex Stabilizer Agents in Combinations in Complex Spheroids A high-throughput screen of multi-cell type tumor spheroids was designed to identify active combinations of DNA G-quadruplex stabilizer agents and targeted small molecules. […] Compounds. […] If the clinical Cmax for an agent had not been determined, the highest concentration tested was 10 microM. […]
Labelling: viability, T/C reported below 90% becomes yes; at or above becomes no.

Does this compound meet the criterion viability, T/C < 90%? Cc1cccc(N(C)C(=O)C2C(O)CCN2c2nc(C)cc(C(F)(F)F)c2C#N)c1 (stereo not given) + CN(C)c1ccc(Nc2c3ccc(NC(=O)CCN4CCCC4)cc3nc3cc(NC(=O)CCN4CCCC4)ccc23)cc1
no

Does this compound meet the criterion viability, T/C < 90%? CCCS(=O)(=O)Nc1ccc(F)c(C(=O)c2c[nH]c3ncc(-c4ccc(Cl)cc4)cc23)c1F + Cc1cnc(CNC(=O)c2c(=O)c3ccc(N4CCCN(C)CC4)nc3n3c2sc2ccccc23)cn1
yes

Does this compound meet the criterion viability, T/C < 90%? CC(=O)O[C@H]1C(=O)[C@@]2(C)[C@H]([C@H](OC(=O)c3ccccc3)[C@]3(O)C[C@H](OC(=O)[C@H](O)[C@@H](NC(=O)c4ccccc4)c4ccccc4)C(C)=C1C3(C)C)[C@]1(OC(C)=O)CO[C@@H]1C[C@@H]2O + CN(C)c1ccc(Nc2c3ccc(NC(=O)CCN4CCCC4)cc3nc3cc(NC(=O)CCN4CCCC4)ccc23)cc1
yes

Does this compound meet the criterion viability, T/C < 90%? O=c1[nH]cc(F)c(=O)[nH]1 + Cc1cnc(CNC(=O)c2c(=O)c3ccc(N4CCCN(C)CC4)nc3n3c2sc2ccccc23)cn1
no
